DC50 listing for selected compounds.
Molecular target: BCL-XL (Homo sapiens)
Construct: BCL-XL degradation results in MOLT-4 cells for compounds of the invention; endogenous in cells; host or cells: MOLT-4
Sequence (Q07817 whole entry): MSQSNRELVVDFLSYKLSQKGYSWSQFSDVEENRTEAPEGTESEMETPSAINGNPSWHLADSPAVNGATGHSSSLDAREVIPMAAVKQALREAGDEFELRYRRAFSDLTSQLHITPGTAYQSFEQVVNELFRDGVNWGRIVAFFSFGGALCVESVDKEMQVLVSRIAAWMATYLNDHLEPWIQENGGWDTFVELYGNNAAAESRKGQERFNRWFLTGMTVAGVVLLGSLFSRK
Experiment: BCL-XL degradation assay in MOLT-4 cells (ELISA, 6 h)
Assay type: cell-based
Details: read-out: Bcl-xL ELISA in MOLT-4 degradation 6 h: External Abs-DC50

Find the recorded DC50 belonging to Cc1ncsc1-c1ccc([C@H](C)NC(=O)[C@@H]2C[C@@H](O)CN2C(=O)[C@@H](NC(=O)CCCCCCC(=O)N2CCN(C(=O)c3ccc(-c4ccc(Cl)cc4)c(CN4CCN(c5ccc(C(=O)NS(=O)(=O)c6ccc(N[C@H](CCN(C)C)CSc7ccccc7)c([N+](=O)[O-])c6)cc5)CC4)c3)CC2)C(C)(C)C)cc1 and report it.
500 to 1000 nM

What about Cc1ncsc1-c1ccc([C@H](C)NC(=O)[C@@H]2C[C@@H](O)CN2C(=O)[C@@H](NC(=O)CCCCC(=O)N2CCN(CCCNc3ccc(S(=O)(=O)NC(=O)c4ccc(N5CCN(CC6=C(c7ccc(Cl)cc7)CC(C)(C)CC6)CC5)cc4Oc4cnc5[nH]ccc5c4)cc3S(=O)(=O)C(F)(F)F)CC2)C(C)(C)C)cc1 ?
100 to 500 nM

What about Cc1ncsc1-c1ccc([C@H](C)NC(=O)[C@@H]2C[C@@H](O)CN2C(=O)[C@@H](NC(=O)CCCCCC(=O)N2CCN(CC[C@H](CSc3ccccc3)Nc3ccc(S(=O)(=O)NC(=O)c4ccc(N5CCOCC5)cc4)cc3S(=O)(=O)C(F)(F)F)CC2)C(C)(C)C)cc1 ?
500 to 1000 nM

Source listed as patent US20260092057A1.
